test system: MS2 coat protein; assay: apparent KD of MS2 coat protein; designed switch direction (-1 OFF switch, 1 ON switch): -1; higher = weaker reporter binding; conditions: input ligand: FMN 200 uM
quantity-name: apparent KD of MS2 coat protein
Value and unit, in that order.

{"sequence-data": "CUUAGCGUAGGAUAUUAGUACAUGAACAUGAGGAUCACCCAUGUGAGGUGGGUCUUAGAUUAAGAAGGGCGAAGAA [EX5 #32] (Eterna round: R97, puzzle: Exclusion 5)", "apparent KD of MS2 coat protein": "221 nM"}
{"sequence-data": "CGGUGUAACGUAGGAUAUCAACGCAACUGACGAUGAGAAGGACGACAUGAGGAUCACCCAUGUGAUUUCUCAAUAUUAUACAUC [Prohibition 86 - Jieux - Exclusion NG 1] (Eterna round: R96, puzzle: Exclusion NG 1)", "apparent KD of MS2 coat protein": "339 nM"}

Shift focus to the following entry.
Value sought: apparent KD of MS2 coat protein, system MS2 coat protein, item AUGUUAUUCUGAGGAUAUUGUUUAAUCCUCUCACAUGAGGAUCACCCAUGUUUCCGUGUUUACCGCAAGAAGGCAGUUUUGUUU [JR_ExcNG2_Sub026] (Eterna round: R96, puzzle: Exclusion NG 2) . Result: 63.6 nM
